Provenance of the data: ChEMBL document CHEMBL5034038

Assay: Inhibition of Influenza A virus (A/Moscow/10/99(H3N2)) neuraminidase N2 using MUNANA as substrate preincubated for 30 mins followed by substrate addition by fluorescence method
Binary call on IC50 with cut-off 30 nM: strictly below means Yes, and equality or higher means No.

[[record]]
molecule = "CC(=O)N[C@H]1[C@H]([C@H](OC(=O)NCCOCCOCCOCCOCCOCCOCc2cn(CCCCCCO[C@H]3CC[C@@]4(C)C(=CC[C@H]5[C@@H]6CC[C@H]([C@H](C)CCCC(C)C)[C@@]6(C)CC[C@@H]54)C3)nn2)[C@H](O)CO)OC(C(=O)O)=C[C@@H]1NC(=N)N"
class_assignment = "Yes"

[[record]]
molecule = "CC(=O)N[C@H]1[C@H]([C@H](OC(=O)NCCOCCOCCOCc2cn(CCCCCCO[C@H]3CC[C@@]4(C)C(=CC[C@H]5[C@@H]6CC[C@H]([C@H](C)CCCC(C)C)[C@@]6(C)CC[C@@H]54)C3)nn2)[C@H](O)CO)OC(C(=O)O)=C[C@@H]1NC(=N)N"
class_assignment = "No"

[[record]]
molecule = "CCC(CC)O[C@@H]1C=C(C(=O)O)C[C@H](N)[C@H]1NC(C)=O [OSELTAMIVIR CARBOXYLATE]"
class_assignment = "Yes"

[[record]]
molecule = "CC(=O)N[C@H]1[C@H]([C@H](O)[C@H](O)CO)OC(C(=O)O)=C[C@@H]1NC(=N)N"
class_assignment = "Yes"

[[record]]
molecule = "CC(=O)N[C@H]1[C@H]([C@H](OC(=O)NCCOCCOCCOCCOCCOCCOCCOCCOCCOCCOCCOCCOCc2cn(CCCCCCO[C@H]3CC[C@@]4(C)C(=CC[C@H]5[C@@H]6CC[C@H]([C@H](C)CCCC(C)C)[C@@]6(C)CC[C@@H]54)C3)nn2)[C@H](O)CO)OC(C(=O)O)=C[C@@H]1NC(=N)N"
class_assignment = "No"

